- Test system: HCT-8/MDR1(PTX) cells
- conditionSet: MDR1(PTX) vs NC cells
Structures can show the parent of a compound that is named as a salt.
So I've got a bunch of molecules here, and I need their Pct change of TC50 (vs NC) values.
Numbers only, in %.

Would you be so kind as to report Pct change of TC50 (vs NC) for each listed record?
1. O=C1c2c(O)ccc(O)c2C(=O)c2c(NCCNCCO)ccc(NCCNCCO)c21 [Mitoxantrone, Mitoxantrone 2HCl]
2. CC[C@]1(O)C[C@H]2CN(CCc3c([nH]c4ccccc34)[C@@](C(=O)OC)(c3cc4c(cc3OC)N(C=O)[C@H]3[C@@](O)(C(=O)OC)[C@H](OC(C)=O)[C@]5(CC)C=CCN6CC[C@]43[C@@H]65)C2)C1 [Vincristine, Vincristine sulphate]
3. CC(=O)O[C@H]1C(=O)[C@@]2(C)[C@H]([C@H](OC(=O)c3ccccc3)[C@]3(O)C[C@H](OC(=O)[C@H](O)[C@@H](NC(=O)c4ccccc4)c4ccccc4)C(C)=C1C3(C)C)[C@]1(OC(C)=O)CO[C@@H]1C[C@@H]2O
4. COc1cccc2c1C(=O)c1c(O)c3c(c(O)c1C2=O)C[C@@](O)(C(=O)CO)C[C@@H]3O[C@H]1C[C@H](N)[C@H](O)[C@H](C)O1 [Doxorubicin, Doxorubicin HCl]

Solution:
172.7
200.8
270.7
140.3

* * *

Kindly supply the reported Eoff, proportion of off-parasite-target effect values for the records listed here.
- Test system: Cryptosporidium parvum
- testProtocol: Anti-cryptosporidial efficacy assay (44-h infection/qRT-PCR)
- conditionSet: at EC80; MDR1(PTX) vs. NC model; Eq 3 and 4
Counter-ions that a name gives are not always drawn.
Give bare numbers, in %.

Reference set (3 entries):
# molecule, measValue
measured = [
    ("O=C1c2c(O)ccc(O)c2C(=O)c2c(NCCNCCO)ccc(NCCNCCO)c21 [Mitoxantrone, Mitoxantrone 2HCl]", 73.60),
    ("CC(=O)O[C@H]1C(=O)[C@@]2(C)[C@H]([C@H](OC(=O)c3ccccc3)[C@]3(O)C[C@H](OC(=O)[C@H](O)[C@@H](NC(=O)c4ccccc4)c4ccccc4)C(C)=C1C3(C)C)[C@]1(OC(C)=O)CO[C@@H]1C[C@@H]2O [Paclitaxel]", 0.30),
    ("CC[C@]1(O)C[C@H]2CN(CCc3c([nH]c4ccccc34)[C@@](C(=O)OC)(c3cc4c(cc3OC)N(C=O)[C@H]3[C@@](O)(C(=O)OC)[C@H](OC(C)=O)[C@]5(CC)C=CCN6CC[C@]43[C@@H]65)C2)C1 [Vincristine, Vincristine sulphate]", 37.30),
]

Now turn to the next molecule.
Exercise: Recall and state the measured Eoff, proportion of off-parasite-target effect for COc1cccc2c1C(=O)c1c(O)c3c(c(O)c1C2=O)C[C@@](O)(C(=O)CO)C[C@@H]3O[C@H]1C[C@H](N)[C@H](O)[C@H](C)O1 [Doxorubicin, Doxorubicin HCl] .
Solution: 61.40

* * *

- System: HCT-8/MDR1(NTZ) cells
- testProtocol: MTS cytotoxicity (drug tolerance) assay
- conditionSet: MDR1(NTZ) cells, after selection by NTZ
Structures can show the parent of a compound that is named as a salt.
For each record, write down the corresponding TC50.
One number for each entry, in µM.

# molecule, unitSymbol, measValue
measured = [
    ("COc1cccc2c1C(=O)c1c(O)c3c(c(O)c1C2=O)C[C@@](O)(C(=O)CO)C[C@@H]3O[C@H]1C[C@H](N)[C@H](O)[C@H](C)O1 [Doxorubicin, Doxorubicin HCl]", "µM", 6.90),
]

Dear colleague, could you send me TC50 for each of the items below? Thanks.
1. O=C1c2c(O)ccc(O)c2C(=O)c2c(NCCNCCO)ccc(NCCNCCO)c21 [Mitoxantrone, Mitoxantrone 2HCl]
2. COc1cccc2c1C(=O)c1c(O)c3c(c(O)c1C2=O)C[C@@](O)(C(C)=O)C[C@@H]3O[C@H]1C[C@H](N)[C@H](O)[C@H](C)O1 [Daunorubicin, Daunorubicin HCl]
3. CC(=O)O[C@H]1C(=O)[C@@]2(C)[C@H]([C@H](OC(=O)c3ccccc3)[C@]3(O)C[C@H](OC(=O)[C@H](O)[C@@H](NC(=O)c4ccccc4)c4ccccc4)C(C)=C1C3(C)C)[C@]1(OC(C)=O)CO[C@@H]1C[C@@H]2O [Paclitaxel]

Solution:
6.74
3.93
21.94
